# target.desc: Hepatitis A virus cellular receptor 2 (Homo sapiens, UniProt Q8TDQ0)
# Sequence (Q8TDQ0 whole entry): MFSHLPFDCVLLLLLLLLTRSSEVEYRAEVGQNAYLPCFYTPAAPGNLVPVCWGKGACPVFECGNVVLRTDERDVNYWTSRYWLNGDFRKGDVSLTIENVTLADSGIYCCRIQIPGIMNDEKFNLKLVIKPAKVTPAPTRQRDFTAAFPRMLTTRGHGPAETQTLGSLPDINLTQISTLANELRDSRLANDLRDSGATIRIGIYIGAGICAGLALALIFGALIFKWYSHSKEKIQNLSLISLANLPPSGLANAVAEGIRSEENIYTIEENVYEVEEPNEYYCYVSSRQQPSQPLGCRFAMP
# experiment.notes: Binding affinity to His-tagged recombinant human TIM3 expressed in HEK293 cells assessed as dissociation constant by sensor chip immobilization based SPR analysis
pKd: −log10 of the molar value.
outcome.measure: pKd

{"structure.smiles": "Cc1ccc(OCC(=O)Nc2cccc(-c3nc(-c4ccccc4)no3)c2)cc1", "outcome.measure": "pKd", "numeric.result": 4.27}
{"structure.smiles": "CCOc1ccc(NC(=O)COc2cccc(-c3noc(-c4ccc(OC)cc4)n3)c2)cc1", "outcome.measure": "pKd", "numeric.result": 5.89}

[a] COc1ccc(-c2noc(-c3cccc(NC(=O)COc4ccccc4C)c3)n2)cc1
[b] COc1ccc(-c2noc(-c3cccc(OCC(=O)Nc4ccc(F)cc4)c3)n2)cc1
Which record would sort first by descending pKd, a or b ? Field: selected label. Fill in the label of the entry you choose. a

Reference for the values: ChEMBL document CHEMBL5360650
